Data provenance: patent US20100292442A1

- Target entity: T1, cynomolgus IL-17RA on cells (cynomolgus)
- T1 construct: whole, on cells; also called CHO-cynoIL-17RA; cyno IL-17RA+ CHO cells
- Protocol details: FACS competition, non-clonal hybridoma supernatant; MFI of biotin-huIL-17A (competitor, 500 ng/ml) on cyno IL-17RA+ CHO cells
Readout: MFI (MFI)
Just the number please, in MFI, no unit attached.

Binder	Experimental result
AMH22/AML22 (antibody, V domains shown, Fully human mAb from IgG2 XenoMouse hybridomas; also called AM-22) VH: QVQLVQSGAEVKKPGASVKVSCKASGYTFTRYGISWVRQAPGQGLEWMGWISAYSGNTNYAQKLQGRVTMTTDTSTSTAYMELRSLRSDDTAVYYCARRQLYFDYWGQGTLVTVSS VL: EIVMTQSPATLSVSPGERVTLSCRASQSVSSNLAWFQQKPGQAPRPLIYDASTRAAGIPARFSGSGSGTDFTLTISSLQSEDFAVYYCQQYDNWPLTFGGGTKVEIK	18
AMH5/AML5 (antibody, IgG2, V domains shown, Fully human mAb from IgG2 XenoMouse hybridomas; also called AM-5) VH: QVQLQESGPGLVKPSETLPLTCTVSGGSIRSYYWSWIRQPAGKGLEWIGRIYRSGNTIYNPSLKSRVTMSIDTSKNQFSLTLSSVTAADTAVYYCARENYSESSGLYYYYGMDVWGQGTTVTVSS VL: DIQMTQSPSSLSASVGDRVTITCRASQGIRNDLGWYQQKPGKAPKRLIYAASSFQSGVPSRFSGSGSGTGFTLTISSLQPEDFATYYCLQHNSYPPTFGQGTKVEIK	9
AMH1/AML1 (antibody, V domains shown, Fully human mAb from IgG2 XenoMouse hybridomas) VH: QVQLQESGPGLVKPSETLSLTCTVSGGSISNYYWNWIRQSPGKGLEWIGDIYYSGSTNYNPSLKSRVTISVDTSKNQFSLKLSSVTTADTAVYYCARDGELANYYGSGSYQFYYYYGMDVWGQGTTVTVSS VL: DILMTQSPSSLSASVGDRVTITCRASQGIRNDLGWYQQKPGKAPKRLIYAASSLQSGVPSRFSGSGSGTEFTLTISSLQPEDFATYYCLQHNSNPFTFGPGTKVDIK	11

Now let's try a different one.
Prompt: Name the recorded MFI for AMH11/AML11 (antibody, V domains shown, Fully human mAb from IgG2 XenoMouse hybridomas) VH: QVQLVESGGGVVQPGRSLRLSCATSGITFSSYGMHWVRQAPGKGLEWVAVIWYDGSNKYYADSVKGRFTISRDNSKNTLYLQMNSLRAEDTAVYYCARDTKDYWGQGTLVTVSS VL: EIVMTQSPATLSVSPGERATLSCRASQSVSSNLAWYQQKPGQAPRLLIYGASTRAAGIPARFSGGGSGTAFTLTISNLQSEDFAVYYCQHYINWPKWTFGQGTKVDIK .
Completion: 9
